Molecular target: GST-Rok (full length) (Bacillus subtilis subsp. subtilis str. …, UniProt O34857 1-191)
Sequence: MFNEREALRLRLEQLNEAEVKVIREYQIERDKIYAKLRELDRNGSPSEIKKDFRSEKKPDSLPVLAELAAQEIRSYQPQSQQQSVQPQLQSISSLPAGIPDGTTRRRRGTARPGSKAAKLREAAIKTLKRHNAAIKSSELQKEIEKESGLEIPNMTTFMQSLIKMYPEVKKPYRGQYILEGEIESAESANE
Test: protein binding microarray; Rok is a gene silencer of Bacillus subtilis; high values mean tight binding
Details: protein: recombinant; tags: GST (pTH5325, pDEST15-Magic modified); dsDNA, one strand shown
In all, about 33,000 sequences were measured (“e-score”: median about -0.037, highest 2% from about 0.34 on). The sample as a whole holds a higher share of the highest values than the screen did.
Measurement Label: binding signal (E-score)
All answers are understood in E-score, so give the number only.

GTCCCGGA -0.141
CTTAGGTC 0.00712
CCACCTAA -0.104

// recorded binding signal for CTTATTAC : 0.299

// binding signal value for CTGATATA : 0.204

The reported binding signal of the sequence CGTCCTAA was -0.0629

Value of measured binding signal for the entry ACAATCTA : 0.283

Per the records, this sequence ( GAGCTATA ) has binding signal equal to 0.145

sequence ATTATTAC , binding signal observed: 0.382

Lookup result for AATTCGTA ; measured binding signal: 0.263

The value of binding signal measured for the sequence CCTATGAA turned out to be -0.0665

The sequence TAGCTACA showed binding signal equal to 0.37

Quick note, binding signal for CGCATTAA landed at 0.0651

Briefly, binding signal measured for GTGCTATA : 0.147

Given item CCCAAACC , the value recorded as its binding signal is -0.181

Reported binding signal of ATCCTAAG : -0.0403

Reported binding signal of GCAGTTTA : 0.0849

What the record says about GAAATCTA : binding signal is 0.345

// binding signal lookup, sequence = ATCTAATC , result: 0.351

Note to self: binding signal recorded for AAACTCTC was 0.106

Noted for ATTATTAA : its binding signal reads 0.0696

binding signal measured on ACTTGATG = -0.00809

Quick note, binding signal for CTGCTATA landed at 0.0937

binding signal for AGGTAATC is -0.0361

Sample GCTTCAAC ; binding signal observed: 0.127

In plain terms, ACTATTAC has a documented binding signal of 0.407

The value of binding signal measured for the sequence CCGAATAG turned out to be -0.00823

Briefly, binding signal measured for CGAACTGC : -0.11

binding signal for GCTATTAC is 0.269

For AACTTATC the sequence record lists binding signal as 0.134
